Tested on: COR-L 105
Test: relative viability (nuclei count vs DMSO), 5 days (fraction); higher = more cells survive
Settings: first compound 0.1265 µM
Each item that follows carries a reported relative viability.

Cc1sc2c(c1C)C(c1ccc(Cl)cc1)=N[C@@H](CC(=O)OC(C)(C)C)c1nnc(C)n1-2 [JQ1] + Cc1nc(Nc2ncc(C(=O)Nc3c(C)cccc3Cl)s2)cc(N2CCN(CCO)CC2)n1 [Dasatinib] (partner 0.075 µM) ... 0.186
Cc1sc2c(c1C)C(c1ccc(Cl)cc1)=N[C@@H](CC(=O)OC(C)(C)C)c1nnc(C)n1-2 [JQ1] + CC(C)C[C@H](NC(=O)[C@H](Cc1ccccc1)NC(=O)c1cnccn1)B(O)O [Bortezomib] (partner 0.002 µM) ... 0.348
Cc1sc2c(c1C)C(c1ccc(Cl)cc1)=N[C@@H](CC(=O)OC(C)(C)C)c1nnc(C)n1-2 [JQ1] + CC1(C)CCC(c2ccc(Cl)cc2)=C(CN2CCN(c3ccc(C(=O)NS(=O)(=O)c4ccc(N[C@H](CCN5CCOCC5)CSc5ccccc5)c(S(=O)(=O)C(F)(F)F)c4)cc3)CC2)C1 [Navitoclax] (partner 0.5 µM) ... 0.567

Return reported relative viability; argument: Cc1sc2c(c1C)C(c1ccc(Cl)cc1)=N[C@@H](CC(=O)OC(C)(C)C)c1nnc(C)n1-2 [JQ1] + Cc1nc(NC(=O)N2CCC[C@H]2C(N)=O)sc1-c1ccnc(C(C)(C)C(F)(F)F)c1 [Alpelisib] (partner 2 µM)
0.642

====

Test system: SK-LU-1
Assay: relative viability (nuclei count vs DMSO), 5 days (fraction); higher = more cells survive
Settings: first compound 8 µM
Quantity name: relative viability

Worked examples follow.
O=c1[nH]c2ccccc2n1C1CCN(CCCC(c2ccc(F)cc2)c2ccc(F)cc2)CC1 [Pimozide] + CS(=O)(=O)CCNCc1ccc(-c2ccc3ncnc(Nc4ccc(OCc5cccc(F)c5)c(Cl)c4)c3c2)o1 [Lapatinib] (partner 2 µM) ... 0.731
O=c1[nH]c2ccccc2n1C1CCN(CCCC(c2ccc(F)cc2)c2ccc(F)cc2)CC1 [Pimozide] + CC(=O)Nc1cccc(-n2c(=O)n(C3CC3)c(=O)c3c(Nc4ccc(I)cc4F)n(C)c(=O)c(C)c32)c1 [Trametinib] (partner 0.02 µM) ... 0.352
O=c1[nH]c2ccccc2n1C1CCN(CCCC(c2ccc(F)cc2)c2ccc(F)cc2)CC1 [Pimozide] + CC1(C)CCC(c2ccc(Cl)cc2)=C(CN2CCN(c3ccc(C(=O)NS(=O)(=O)c4ccc(N[C@H](CCN5CCOCC5)CSc5ccccc5)c(S(=O)(=O)C(F)(F)F)c4)cc3)CC2)C1 [Navitoclax] (partner 0.5 µM) ... 0.809

Now consider the entry below.
Return reported relative viability; argument: O=c1[nH]c2ccccc2n1C1CCN(CCCC(c2ccc(F)cc2)c2ccc(F)cc2)CC1 [Pimozide] + C[C@]1(O)C[C@@H](c2nc(-c3ccc4ccc(-c5ccccc5)nc4c3)c3c(N)nccn32)C1 [Linsitinib] (partner 1 µM)
0.851

====

Tested on: HARA
Assay: relative viability (nuclei count vs DMSO), 5 days (fraction); higher = more cells survive
Conditions: first compound 0.4 µM
Each item that follows carries a reported relative viability.
The answer should be written as a number, with no unit following it.

Cc1sc2c(c1C)C(c1ccc(Cl)cc1)=N[C@@H](CC(=O)OC(C)(C)C)c1nnc(C)n1-2 [JQ1] + Nc1ncn([C@H]2C[C@H](O)[C@@H](CO)O2)c(=O)n1 [Decitabine] (partner 2 µM) ... 0.457

Now consider the entry below.
Recall the recorded relative viability for Cc1sc2c(c1C)C(c1ccc(Cl)cc1)=N[C@@H](CC(=O)OC(C)(C)C)c1nnc(C)n1-2 [JQ1] + COc1cc2c(Oc3ccc(NC(=O)C4(C(=O)Nc5ccc(F)cc5)CC4)cc3F)ccnc2cc1OCCCN1CCOCC1 [Foretinib] (partner 0.25 µM) with HARA and state it.
0.572

====

Tested on: CAL-12T
Assay: relative viability (nuclei count vs DMSO), 5 days (fraction); higher = more cells survive
Settings: first compound 0.05 µM
Quantity name: relative viability
The answer should be written as a number, with no unit following it.

Worked examples follow.
COc1cc2nccc(Oc3ccc(NC(=O)Nc4cc(C)on4)c(Cl)c3)c2cc1OC [Tivozanib] + Nc1nc2[nH]cc(CCc3ccc(C(=O)N[C@@H](CCC(=O)O)C(=O)O)cc3)c2c(=O)[nH]1 [Pemetrexed] (partner 0.2 µM) ... 1.13
Nc1ccn([C@@H]2O[C@H](CO)[C@@H](O)[C@@H]2O)c(=O)n1 [Cytarabine] + Cc1cc(Nc2cc(N3CCN(C)CC3)nc(Sc3ccc(NC(=O)C4CC4)cc3)n2)n[nH]1 [Tozasertib] (partner 0.1 µM) ... 0.27
Nc1ccn([C@@H]2O[C@H](CO)[C@@H](O)[C@@H]2O)c(=O)n1 [Cytarabine] + COc1cc2c(Oc3ccc(NC(=O)C4(C(=O)Nc5ccc(F)cc5)CC4)cc3F)ccnc2cc1OCCCN1CCOCC1 [Foretinib] (partner 0.25 µM) ... 1.05
COc1cc2nccc(Oc3ccc(NC(=O)Nc4cc(C)on4)c(Cl)c3)c2cc1OC [Tivozanib] + Cc1nc(NC(=O)N2CCC[C@H]2C(N)=O)sc1-c1ccnc(C(C)(C)C(F)(F)F)c1 [Alpelisib] (partner 2 µM) ... 1.31
Nc1ccn([C@@H]2O[C@H](CO)[C@@H](O)[C@@H]2O)c(=O)n1 [Cytarabine] + COc1cccc2cc(-c3nc([C@H]4CC[C@H](C(=O)O)CC4)n4ncnc(N)c34)[nH]c12 [OSI-027] (partner 0.5 µM) ... 0.524

Return reported relative viability; argument: COc1cc2nccc(Oc3ccc(NC(=O)Nc4cc(C)on4)c(Cl)c3)c2cc1OC [Tivozanib] + CC(=O)Nc1cccc(-n2c(=O)n(C3CC3)c(=O)c3c(Nc4ccc(I)cc4F)n(C)c(=O)c(C)c32)c1 [Trametinib] (partner 0.02 µM)
0.414

====

System: NCI-H838
Test: relative viability (nuclei count vs DMSO), 5 days (fraction); higher = more cells survive
Settings: first compound 0.002 µM
Each item that follows carries a reported relative viability.
The answer should be written as a number, with no unit following it.

Worked examples follow.
CC(=O)O[C@@]12CO[C@@H]1C[C@H](O)[C@@]1(C)C(=O)[C@H](O)C3=C(C)[C@@H](OC(=O)[C@H](O)[C@@H](NC(=O)OC(C)(C)C)c4ccccc4)C[C@@](O)([C@@H](OC(=O)c4ccccc4)[C@H]21)C3(C)C [Docetaxel] + CS(=O)(=O)CCNCc1ccc(-c2ccc3ncnc(Nc4ccc(OCc5cccc(F)c5)c(Cl)c4)c3c2)o1 [Lapatinib] (partner 2 µM) ... 0.259
CC(=O)O[C@@]12CO[C@@H]1C[C@H](O)[C@@]1(C)C(=O)[C@H](O)C3=C(C)[C@@H](OC(=O)[C@H](O)[C@@H](NC(=O)OC(C)(C)C)c4ccccc4)C[C@@](O)([C@@H](OC(=O)c4ccccc4)[C@H]21)C3(C)C [Docetaxel] + CC(=O)Nc1cccc(-n2c(=O)n(C3CC3)c(=O)c3c(Nc4ccc(I)cc4F)n(C)c(=O)c(C)c32)c1 [Trametinib] (partner 0.02 µM) ... 0.183
CC(=O)O[C@@]12CO[C@@H]1C[C@H](O)[C@@]1(C)C(=O)[C@H](O)C3=C(C)[C@@H](OC(=O)[C@H](O)[C@@H](NC(=O)OC(C)(C)C)c4ccccc4)C[C@@](O)([C@@H](OC(=O)c4ccccc4)[C@H]21)C3(C)C [Docetaxel] + CC(C)C[C@H](NC(=O)[C@H](Cc1ccccc1)NC(=O)c1cnccn1)B(O)O [Bortezomib] (partner 0.002 µM) ... 0.247

Return reported relative viability; argument: CC(=O)O[C@@]12CO[C@@H]1C[C@H](O)[C@@]1(C)C(=O)[C@H](O)C3=C(C)[C@@H](OC(=O)[C@H](O)[C@@H](NC(=O)OC(C)(C)C)c4ccccc4)C[C@@](O)([C@@H](OC(=O)c4ccccc4)[C@H]21)C3(C)C [Docetaxel] + Cc1cc(Nc2cc(N3CCN(C)CC3)nc(Sc3ccc(NC(=O)C4CC4)cc3)n2)n[nH]1 [Tozasertib] (partner 0.1 µM)
0.258

====

Tested on: EPLC-272H
Test: relative viability (nuclei count vs DMSO), 5 days (fraction); higher = more cells survive
Details: first compound 2.53 µM
Each item that follows carries a reported relative viability.
The answer should be written as a number, with no unit following it.

Worked examples follow.
Cc1cnc(-c2cnc(NCCNc3ccc(C#N)cn3)nc2-c2ccc(Cl)cc2Cl)[nH]1 + N=C(N)NC(=N)NCCc1ccccc1 [Phenformin] (partner 250 µM) ... 0.316
O=c1[nH]c2ccccc2n1C1CCN(CCCC(c2ccc(F)cc2)c2ccc(F)cc2)CC1 [Pimozide] + CC(=O)Nc1cccc(-n2c(=O)n(C3CC3)c(=O)c3c(Nc4ccc(I)cc4F)n(C)c(=O)c(C)c32)c1 [Trametinib] (partner 0.02 µM) ... 0.263
O=c1[nH]c2ccccc2n1C1CCN(CCCC(c2ccc(F)cc2)c2ccc(F)cc2)CC1 [Pimozide] + C[C@@H](Oc1cc(-c2cnn(C3CCNCC3)c2)cnc1N)c1c(Cl)ccc(F)c1Cl [Crizotinib] (partner 1 µM) ... 0.904
Cc1cnc(-c2cnc(NCCNc3ccc(C#N)cn3)nc2-c2ccc(Cl)cc2Cl)[nH]1 + NC(=O)Nc1cc(-c2cccc(F)c2)sc1C(=O)N[C@H]1CCCNC1 [AZD7762] (partner 0.2 µM) ... 0.202

Now consider the entry below.
Return reported relative viability; argument: Cc1cnc(-c2cnc(NCCNc3ccc(C#N)cn3)nc2-c2ccc(Cl)cc2Cl)[nH]1 + O=C(CCCCCCC(=O)Nc1ccccc1)NO [Vorinostat] (partner 1 µM)
0.581
